FYI, the data here is from patent US9745328B2.

- Test system: leukotriene pathway in human whole blood (LTB4)
- Assay Summary: Human whole blood assay (LTB4 levels after calcium ionophore A23187 stimulation)
- Type: cell-based
- Particulars: Homo sapiens, human whole blood diluted 1:1, A23187 stimulation; Table 6 (additional runs); read-out: Human Whole Blood LTB4 IC50 1:1
- Protocol: The ability of the compounds of the present invention to treat a FLAP-mediated disease and/or disorder, or associated symptoms or complications thereof, was determined using the following procedures. Binding assay data represent the average value obtained from two different assay plates, with samples run in duplicate on each plate. Human whole blood assay data represent a single replicate on an assay plate using whole blood from at least one healthy donor. […]
pIC50: −log10 of the molar value.
Property Name: pIC50

INSERT INTO results (smiles_code, property_name, censoring_operator, measured_value) VALUES
  ('Nc1cnc(-c2ccc(-c3ccccc3S(=O)(=O)NCC3(O)CNC3)cc2F)cn1', 'pIC50', '<', 6.00),
  ('Nc1cnc(-c2ccc(-c3ccccc3S(=O)(=O)c3ccccc3)cc2F)cn1', 'pIC50', '=', 6.57),
  ('CC(C)c1ccccc1-c1ccc(-c2cnc(N)cn2)c(F)c1', 'pIC50', '=', 6.49);
